# Test system: C. jejuni
# ASSAY PROTOCOL: Kill or inhibit growth/proliferation; morphology, biofilm and growth disruption (Tables 5, 6); further: test concentration or dose not given here
# Format: cell-based, Campylobacter jejuni
# Design: key: A: Peptide aggregates; B: Less hyphal formation; Clumps; Diffuse clumps and small polyps; F: Diffuse growth; H: Thin; I: Growth inhibition; Microcolony formation; Rippled; Small polyps; Thick; W: Halo formation on top, microlonies on bottom
READOUT NAME: Organism, effect

Solved entries:
| SUBSTANCE | REPORTED VALUE |
| --- | --- |
| PF-145: peptide having multiple activities (GIVLTGRAGLVSGACSMALGVGLG; Peptide with targeting and/or antimicrobial activity) | C. jejuni (R) |
| PF-596: peptide having multiple activities (SKMWDKILTILILILELIRELIKL; Peptide with targeting and/or antimicrobial activity) | C. jejuni (D) |
| PF-061: peptide having multiple activities (chain 1 GYNSYKAVQDVKTHSEEQRVTAKK; chain 2 GYNSYKAVQDVKTHSEEQRVTAKK; Peptide with targeting and/or antimicrobial activity) | C. jejuni (R) |
| PF-470: peptide having multiple activities (chain 1 PYSDSYATRPHWEQHRAR; chain 2 PYSDSYATRPHWEQHRAR; Peptide with targeting and/or antimicrobial activity) | C. jejuni (A) |
| LNFRAENKILEKIHISLIDTVEGSA [PF-575] | C. jejuni (R) |

Give Organism, effect for the following substance: MIHLTKQNTMEALHFIKQFYDMFFILNFNV [PF-040] C. jejuni (D)

Query Organism, effect for PF-392: peptide having multiple activities (chain 1 DPAGCNDIVRKYCK; chain 2 DPAGCNDIVRKYCK; Peptide with targeting and/or antimicrobial activity) C. jejuni (A)

Output measured Organism, effect for this item: PF-609: peptide having multiple activities (TEIKLDNNEYLVLNLDDILGILK; Peptide with targeting and/or antimicrobial activity) C. jejuni (R)

Item PF-559: peptide having multiple activities (chain 1 SRPGKPGGVSIDVSRDRQDILSNYP; chain 2 SRPGKPGGVSIDVSRDRQDILSNYP; Peptide with targeting and/or antimicrobial activity) : provide Organism, effect C. jejuni (A)

Return Organism, effect for the following substance: PF-566: peptide having multiple activities (chain 1 EAQQVTQQLGADFNAITTPTATKV; chain 2 EAQQVTQQLGADFNAITTPTATKV; Peptide with targeting and/or antimicrobial activity) C. jejuni (D)

Fill in Organism, effect for record PF-057: peptide having multiple activities (chain 1 TMIVISIPRFEEYMKARHKKWM; chain 2 TMIVISIPRFEEYMKARHKKWM; Peptide with targeting and/or antimicrobial activity) C. jejuni (D)

Tell me Organism, effect reported for PF-610: peptide having multiple activities (VFLKLKTSKIDLASIIFYP; Peptide with targeting and/or antimicrobial activity) C. jejuni (D)

---

# Tested on: C. jejuni
# ASSAY PROTOCOL: Kill or inhibit growth/proliferation; morphology, biofilm and growth disruption (Tables 5, 6); further: test concentration or dose not given here
# Format: cell-based, Campylobacter jejuni
# Parameters: key: A: Peptide aggregates; B: Less hyphal formation; Clumps; Diffuse clumps and small polyps; F: Diffuse growth; H: Thin; I: Growth inhibition; Microcolony formation; Rippled; Small polyps; Thick; W: Halo formation on top, microlonies on bottom
READOUT NAME: Organism, effect

Observe how each entry below is paired with its result.
| SUBSTANCE | READOUT NAME | REPORTED VALUE |
| --- | --- | --- |
| PF-063: peptide having multiple activities (chain 1 IAAIIVLVLFQKGLLQIFNWILIQLQ; chain 2 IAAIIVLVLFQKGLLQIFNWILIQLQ; Peptide with targeting and/or antimicrobial activity) | Organism, effect | C. jejuni (D) |
| PF-599: peptide having multiple activities (LFEIFKPKH; Peptide with targeting and/or antimicrobial activity) | Organism, effect | C. jejuni (R) |
| PF-356: peptide having multiple activities (chain 1 VSIKIGAIVIGMIGLMELLTE; chain 2 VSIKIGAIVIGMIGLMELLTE; Peptide with targeting and/or antimicrobial activity) | Organism, effect | C. jejuni (D) |
| PF-425: peptide having multiple activities (MMELVLKTIIGPIVVGVVLRIVDKWLNKDK; Peptide with targeting and/or antimicrobial activity) | Organism, effect | C. jejuni (D) |
| PF-595: peptide having multiple activities (LQNKIYELLYIKERSKLCS; Peptide with targeting and/or antimicrobial activity) | Organism, effect | C. jejuni (D) |

Specify reported Organism, effect for the substance shown: PF-598: peptide having multiple activities (MKFMLEVRNKAISAYKEITRTQI; Peptide with targeting and/or antimicrobial activity) C. jejuni (R)

// Input: PF-590: peptide having multiple activities (YYQAKLFPLL; Peptide with targeting and/or antimicrobial activity) . Output its Organism, effect only. C. jejuni (R)

Supply recorded Organism, effect for PF-432: peptide having multiple activities (FNGDSEFFLCIAF; Peptide with targeting and/or antimicrobial activity) here. C. jejuni (D)

Kindly indicate its recorded Organism, effect. Item: PF-577: peptide having multiple activities (chain 1 PFETRESFRVPVIGILGGWDYFMHP; chain 2 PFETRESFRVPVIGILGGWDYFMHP; Peptide with targeting and/or antimicrobial activity) C. jejuni (R)
